# subject-of-test: neutrophil collagenase (MMP-8) (Homo sapiens, UniProt P22894)
# Construct: enzymatic activity of the catalytic domains of human stromelysin and of neutrophil collagenase
# Sequence (P22894 100-262 limits assumed): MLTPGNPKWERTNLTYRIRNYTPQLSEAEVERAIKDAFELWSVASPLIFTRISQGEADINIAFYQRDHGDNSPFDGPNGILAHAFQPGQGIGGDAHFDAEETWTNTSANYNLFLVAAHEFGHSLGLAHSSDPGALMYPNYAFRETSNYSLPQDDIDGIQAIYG
# procedure-text: Enzyme inhibition of the catalytic domain of neutrophil collagenase (fluorogenic substrate)
# assay-conditions: 15 min preincubation, pH=6.5, fluorescence 328 nm (ex)/393 nm (em)
# Protocol: Preparation and determination of the enzymatic activity of the catalytic domains of human stromelysin and of neutrophil collagenase. The enzymes stromelysin (MMP-3) and neutrophil collagenase (MMP-8) were prepared according to Ye et al. (Biochemistry; 31 (1992) pages 11231-11235). […] After addition of 10 μl of a 10% strength (v/v) aqueous dimethyl sulfoxide solution which contains 1 mil/L of the substrates, the enzyme reaction is monitored by fluorescence spectroscopy (328 nm (ex)/393 nm(em)). […]
pIC50: −log10 of the molar value.
readout-kind: pIC50

The examples below pair each entry with its known result.
compound	pIC50
O=C(NCCC[C@H](NS(=O)(=O)c1ccc(-c2ccc(Cl)cc2)cc1)C(=O)O)c1ccc(Cl)cc1 [Example 90]	8.30
NC(=O)NCCC[C@@H](NS(=O)(=O)c1ccc(-c2ccc(Cl)cc2)cc1)C(=O)O [Example 1, (R)-(4-Chlorobiphenylsulfonyl)citrulline]	8.15
O=C(Cc1cccs1)NCCC[C@H](NS(=O)(=O)c1ccc(-c2ccc(Cl)cc2)cc1)C(=O)O [Example 111]	8.52
CC(C)(C)CC(=O)NCCC[C@H](NS(=O)(=O)c1ccc(-c2ccc(Cl)cc2)cc1)C(=O)O [Example 49]	8.52

[P] O=C(NCCC[C@H](NS(=O)(=O)c1ccc(-c2ccc(Cl)cc2)cc1)C(=O)O)c1ccccc1O [Example 74]
[Q] O=C(NCCC[C@H](NS(=O)(=O)c1ccc(-c2ccc(Cl)cc2)cc1)C(=O)O)c1ccc(F)c(F)c1 [Example 87]
Which value of pIC50 is greater, the one for P or the one for Q ? Please indicate the selected item by its label.
P

* * *

# subject-of-test: stromelysin (MMP-3) (Homo sapiens)
# Construct: enzymatic activity of the catalytic domains of human stromelysin and of neutrophil collagenase
# Sequence (P08254 100-272 limits assumed): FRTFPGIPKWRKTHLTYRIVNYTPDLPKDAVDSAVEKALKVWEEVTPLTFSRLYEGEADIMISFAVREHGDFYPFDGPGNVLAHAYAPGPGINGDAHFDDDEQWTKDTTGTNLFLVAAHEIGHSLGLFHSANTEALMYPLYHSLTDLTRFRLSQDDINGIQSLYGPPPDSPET
# procedure-text: Enzyme inhibition of the catalytic domain of human stromelysin (fluorogenic substrate)
# assay-conditions: 15 min preincubation, pH=6.5, fluorescence 328 nm (ex)/393 nm (em)
readout-kind: IC50 (nM)

compound	reported
O=C(NCCC[C@H](NS(=O)(=O)c1ccc(-c2ccc(Cl)cc2)cc1)C(=O)O)c1ccc(Cl)c(Cl)c1	40

[A] O=C(NCCC[C@H](NS(=O)(=O)c1ccc(-c2ccc(Cl)cc2)cc1)C(=O)O)c1ccc(F)cc1
[B] CC1CC1C(=O)NCCC[C@H](NS(=O)(=O)c1ccc(-c2ccc(Cl)cc2)cc1)C(=O)O (stereo partly drawn)
From the items above, decide which of A and B has the lower IC50 reading. Please indicate the selected item by its label.
B
